Tested on: MS2 coat protein
Assay: apparent KD of MS2 coat protein; designed switch direction (-1 OFF switch, 1 ON switch): 1; higher = weaker reporter binding
Conditions: input ligand: none
reported_endpoint: apparent KD of MS2 coat protein (nM)

[[record]]
macromolecule_sequence = "AGAUCAUGACGAGGAUAUGCGACAUGAGGAUCACCCAUGUAUGUUGCAGGACGCGUACGUCCAAUGUAGAAGGCGUCGUGGUCA [JL SSNG2 1.05] (Eterna round: R96, puzzle: Same State NG 2)"
measured_on = "MS2 coat protein"
reported_endpoint = "apparent KD of MS2 coat protein"
result_value = 88.7

[[record]]
macromolecule_sequence = "AGCUAUUAAUCAGGAUAUGGUGACAUGAGGAUCACCCAUGUAUAGAUGAUUAAAUGUGGUCUAAACUAGAAGGGAUUACUAACA [SameState NG2 #54] (Eterna round: R96, puzzle: Same State NG 2)"
measured_on = "MS2 coat protein"
reported_endpoint = "apparent KD of MS2 coat protein"
result_value = 268

[[record]]
macromolecule_sequence = "UGAACCGUCACAGGAUAUCAUGCGAAAAUUGCGUGAGAAGGGUGGAUGUUGUGUUCAAAGUUAUACAUGAGGAUCACCCAUGUU [SameState NG1 #46] (Eterna round: R96, puzzle: Same State NG 1)"
measured_on = "MS2 coat protein"
reported_endpoint = "apparent KD of MS2 coat protein"
result_value = 65.5

[[record]]
macromolecule_sequence = "GAGUGGAGGAGAGGAUAUACAAUGAUAAUCACAGUAGAAGGUUCUAACAUGAGGAUCACCCAUGUAGGACUAUACCUGAGAGAA [Parity 48 - Jieux - Same State NG 1] (Eterna round: R96, puzzle: Same State NG 1)"
measured_on = "MS2 coat protein"
reported_endpoint = "apparent KD of MS2 coat protein"
result_value = 16

[[record]]
macromolecule_sequence = "CUAUUAGGAUGAGGAUAUGCAGAGGAUCACCCUGUAGAAGGCAAUAGAUGAGGAUAUGCAGAGGAUCACCCUGUAGAAGGCAAC [pwkr ssNG DX.3] (Eterna round: R96, puzzle: Same State NG 1)"
measured_on = "MS2 coat protein"
reported_endpoint = "apparent KD of MS2 coat protein"
result_value = 177

[[record]]
macromolecule_sequence = "AAGCCUAAACGGCGAAAACGACAUGAGGAUCACCCAUGUACACAGGAUAUCAGCCUGCUACAGGCUGAGAAGGGUGAACCUAAA [Maisveon] (Eterna round: R96, puzzle: Same State NG 3)"
measured_on = "MS2 coat protein"
reported_endpoint = "apparent KD of MS2 coat protein"
result_value = 113

[[record]]
macromolecule_sequence = "CCACUCUGCGGAGGAUAUGGGCCUGCCCGGGAUAACGGGCCUAAUACAUGAGGAUCACCCAUGUCCCAGAAGGCCGCUAGAGCC [Xeusza] (Eterna round: R96, puzzle: Same State NG 2)"
measured_on = "MS2 coat protein"
reported_endpoint = "apparent KD of MS2 coat protein"
result_value = 139

[[record]]
macromolecule_sequence = "CAUCGUUUGAUAGGAUAUCGCUAUACAUGAGGAUCACCCAUGUUUACCACGCUGGUUUUUCAUACCGAGAAGGAUUCUGAUGUU [salish99_SSNG02_r04_015] (Eterna round: R96, puzzle: Same State NG 2)"
measured_on = "MS2 coat protein"
reported_endpoint = "apparent KD of MS2 coat protein"
result_value = 38.6

[[record]]
macromolecule_sequence = "GAGAGAUGGUUAGGAUAUUCGGUGAUAAUGAUAGAAGAAGGAACUGACAUGAGGAUCACCCAUGUGGGAAUAAUCCAGAGAGAG [Parity 20 - Jieux - Same State NG 1] (Eterna round: R96, puzzle: Same State NG 1)"
measured_on = "MS2 coat protein"
reported_endpoint = "apparent KD of MS2 coat protein"
result_value = 107

[[record]]
macromolecule_sequence = "AGCUAUUAAUCAGGAUAUGGUCACAUGAGGAUCACCCAUGUAACGAUGAUAUAAUGUGGUCAAGACUAGAAGGGAUUGCUAACA [SameState NG2 #66] (Eterna round: R96, puzzle: Same State NG 2)"
measured_on = "MS2 coat protein"
reported_endpoint = "apparent KD of MS2 coat protein"
result_value = 191

[[record]]
macromolecule_sequence = "UUAAUAAAUCAAGGAUAUCACGUCGUUUAGACGUGAGAAGGUGAUCAUAACAUGAGGAUCACCCAUGUAUUACAUGAAUAUUAA [SSNG1/1-B3] (Eterna round: R96, puzzle: Same State NG 1)"
measured_on = "MS2 coat protein"
reported_endpoint = "apparent KD of MS2 coat protein"
result_value = 1570

[[record]]
macromolecule_sequence = "UGUUGUUAAUUAGGAUAUGGUCACAUGAGGAUCACCCAUGUAAUGUCGAUGCUAUGUGGAUCCGAUCAGAAGGAAUGGCUAACA [SameState NG2 #95] (Eterna round: R96, puzzle: Same State NG 2)"
measured_on = "MS2 coat protein"
reported_endpoint = "apparent KD of MS2 coat protein"
result_value = 204

